Quick reference: % viability in DMSO of the listed items.
System: SK-BR-3
Assay: % viability in DMSO, miRNA mimic relative to NTC in DMSO; higher = less cytotoxic
Details: drug used in drug arm: lapatinib 1 uM; treatment: DMSO
Field format: number, assumed %, no unit text.

As a guide, the following entries are already answered.
{"ENTRY_SEQUENCE": "GCGAGGACCCCUCGGGGUCUGAC", "% viability in DMSO, %": 48.4}
{"ENTRY_SEQUENCE": "UCUACAAAGGAAAGCGCUUUCU", "% viability in DMSO, %": 49.1}
{"ENTRY_SEQUENCE": "AAAAGUACUUGCGGAUUUUGCU", "% viability in DMSO, %": 161}
{"ENTRY_SEQUENCE": "AAAAGUAAUUGCGGAUUUUGCC", "% viability in DMSO, %": 73.4}

In the following, a different sequence is considered.
Q) Complete the entry with % viability in DMSO for AAAAGUAAUUGUGGUUUUUGCC
A) 80.3

---

Tested on: HCC-1954
Test: % viability under drug (72 h drug + 72 h recovery), miRNA mimic relative to NTC in DMSO; higher = more surviving cells
Conditions: drug used in drug arm: GDC-0980 2.5 uM; treatment: drug
Just a reminder that ties go to Not met: only % viability under drug strictly below 1% counts as Met.

{"ENTRY_SEQUENCE": "UAGGUAGUUUCAUGUUGUUGGG", "GROUP_LABEL": "Not met"}

Q) Input AAGUGCCGCCAUCUUUUGAGUGU ; condition: % viability under drug strictly below 1%. Does it hold?
A) Met

Q) Input AACGCCAUUAUCACACUAAAUA ; condition: % viability under drug strictly below 1%. Does it hold?
A) Not met

Q) Input CAAAAGUAAUUGUGGAUUUUGU ; condition: % viability under drug strictly below 1%. Does it hold?
A) Not met

Q) Input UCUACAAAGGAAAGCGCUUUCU ; condition: % viability under drug strictly below 1%. Does it hold?
A) Not met

Q) Input ACAGUAGAGGGAGGAAUCGCAG ; condition: % viability under drug strictly below 1%. Does it hold?
A) Not met

Q) Input GAGCCAGUUGGACAGGAGC ; condition: % viability under drug strictly below 1%. Does it hold?
A) Met

Q) Input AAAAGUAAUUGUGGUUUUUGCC ; condition: % viability under drug strictly below 1%. Does it hold?
A) Not met

Q) Input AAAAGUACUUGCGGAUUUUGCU ; condition: % viability under drug strictly below 1%. Does it hold?
A) Not met

Q) Input AGUUAAUGAAUCCUGGAAAGU ; condition: % viability under drug strictly below 1%. Does it hold?
A) Not met

---

System: PC9
Assay: cell count fold change with erlotinib, miRNA mimic vs non-targeting control (log2 ratio); higher = more drug-tolerant survivors than NTC
Conditions: erlotinib 1 µM; 72 h drug + 72 h drug-free recovery; perturbation: miRNA mimic
Criterion: cell count fold change with erlotinib meeting or surpassing -0.5. Met: fulfilled. Not met: not fulfilled.

{"ENTRY_SEQUENCE": "AAAAACUGUAAUUACUUUU", "SYSTEM_NAME": "PC9", "GROUP_LABEL": "fulfilled"}
{"ENTRY_SEQUENCE": "AAGAUGUGGAAAAAUUGGAAUC", "SYSTEM_NAME": "PC9", "GROUP_LABEL": "fulfilled"}
{"ENTRY_SEQUENCE": "ACCCUAUCAAUAUUGUCUCUGC", "SYSTEM_NAME": "PC9", "GROUP_LABEL": "not fulfilled"}
{"ENTRY_SEQUENCE": "UAAGGUGCAUCUAGUGCAGAUAG", "SYSTEM_NAME": "PC9", "GROUP_LABEL": "not fulfilled"}
{"ENTRY_SEQUENCE": "CAGCAGCAAUUCAUGUUUUGAA", "SYSTEM_NAME": "PC9", "GROUP_LABEL": "not fulfilled"}

Q) Could you please find out whether GUGAGGGCAUGCAGGCCUGGAUGGGG has cell count fold change with erlotinib that meets -0.5 or exceeds it?
A) not fulfilled

Q) Could you please find out whether UUGUGCUUGAUCUAACCAUGU has cell count fold change with erlotinib that meets -0.5 or exceeds it?
A) not fulfilled
